Reference source for all entries: ChEMBL document CHEMBL2202979

experiment: Inhibition of HCV genotype 2a JFH NS3/4A protease expressed in Escherichia coli incubated for 30 mins by time-resolved fluorescence assay; design: species or system Hepatitis C virus JFH-1
quantity_kind: pKi
Numbers only, as −log10 of the molar value.

Field: example entries. Status: answers known.
{"smiles_repr": "C=C[C@@H]1C[C@]1(NC(=O)[C@@H]1C[C@@H]2CN1C(=O)[C@H](C1CCCC1)NC(=O)OCC(C)(C)C[C@@H]1C[C@@H]1c1cc3c(cc(OCC)nc3cc1OC)O2)C(=O)NS(=O)(=O)C1CC1", "observed_result": 9.85}
{"smiles_repr": "C=C[C@@H]1C[C@]1(NC(=O)[C@@H]1C[C@@H]2CN1C(=O)[C@H](C1CCCC1)NC(=O)OCC(C)(C)CCCc1cc3c(cc(OCC)nc3cc1OC)O2)C(=O)NS(=O)(=O)C1CC1", "observed_result": 9.85}

Now turn to the next compound.
Ask | Recorded pKi for C=C[C@@H]1C[C@]1(NC(=O)[C@@H]1C[C@@H]2CN1C(=O)[C@H](C1CCCC1)NC(=O)N1CC[C@@H](C1)OCCC/C=C/c1cc3ccc(OC)cc3nc1O2)C(=O)NS(=O)(=O)C1CC1 , please?
Reply | 9.77
